tested on: MS2 coat protein; assay: apparent KD of MS2 coat protein; higher = weaker reporter binding; settings: Eterna round: R107; input ligand: arginine 13.2 mM
Class T: apparent KD of MS2 coat protein at least 20 nM. Class F: apparent KD of MS2 coat protein below 20 nM.

Record excerpt, results attached:
CGUUAAGAAUCGGCCGCCACUCCAUACGUGUGAAUCGCGGAUCGACAUGAGGAUCACCCAUGUCGGAGGACCGGGAUCCUCUUUC [theeternabot_sameState_MS2_Trp_B_12] ... T
GCCCUGCGCCCGGGACCGGCAAGAUCCAUGCGAGGACCGGUACGGCCGCCACUCGCAGACGUACAUGAGGAUCACCCAUGUCCUC [theeternabot_exclusion_MS2_Trp_A_24] ... T

Prompt line: I'd appreciate it if you could say whether GGGCGCUAUCCCGCGAGGGAUAGCGUUCAACGAGGACCGGUACGGCCGCCACUCGAACGAGUGGUGACAUGAGGAUCACCCAUGU [Iaa] has apparent KD of MS2 coat protein at least equal to 20 nM.
Response line: T

Value source: the supplement of paper PMC9170038
